Assay system: hERG potassium currents (Homo sapiens, UniProt Q12809)
Sequence (Q12809 whole entry): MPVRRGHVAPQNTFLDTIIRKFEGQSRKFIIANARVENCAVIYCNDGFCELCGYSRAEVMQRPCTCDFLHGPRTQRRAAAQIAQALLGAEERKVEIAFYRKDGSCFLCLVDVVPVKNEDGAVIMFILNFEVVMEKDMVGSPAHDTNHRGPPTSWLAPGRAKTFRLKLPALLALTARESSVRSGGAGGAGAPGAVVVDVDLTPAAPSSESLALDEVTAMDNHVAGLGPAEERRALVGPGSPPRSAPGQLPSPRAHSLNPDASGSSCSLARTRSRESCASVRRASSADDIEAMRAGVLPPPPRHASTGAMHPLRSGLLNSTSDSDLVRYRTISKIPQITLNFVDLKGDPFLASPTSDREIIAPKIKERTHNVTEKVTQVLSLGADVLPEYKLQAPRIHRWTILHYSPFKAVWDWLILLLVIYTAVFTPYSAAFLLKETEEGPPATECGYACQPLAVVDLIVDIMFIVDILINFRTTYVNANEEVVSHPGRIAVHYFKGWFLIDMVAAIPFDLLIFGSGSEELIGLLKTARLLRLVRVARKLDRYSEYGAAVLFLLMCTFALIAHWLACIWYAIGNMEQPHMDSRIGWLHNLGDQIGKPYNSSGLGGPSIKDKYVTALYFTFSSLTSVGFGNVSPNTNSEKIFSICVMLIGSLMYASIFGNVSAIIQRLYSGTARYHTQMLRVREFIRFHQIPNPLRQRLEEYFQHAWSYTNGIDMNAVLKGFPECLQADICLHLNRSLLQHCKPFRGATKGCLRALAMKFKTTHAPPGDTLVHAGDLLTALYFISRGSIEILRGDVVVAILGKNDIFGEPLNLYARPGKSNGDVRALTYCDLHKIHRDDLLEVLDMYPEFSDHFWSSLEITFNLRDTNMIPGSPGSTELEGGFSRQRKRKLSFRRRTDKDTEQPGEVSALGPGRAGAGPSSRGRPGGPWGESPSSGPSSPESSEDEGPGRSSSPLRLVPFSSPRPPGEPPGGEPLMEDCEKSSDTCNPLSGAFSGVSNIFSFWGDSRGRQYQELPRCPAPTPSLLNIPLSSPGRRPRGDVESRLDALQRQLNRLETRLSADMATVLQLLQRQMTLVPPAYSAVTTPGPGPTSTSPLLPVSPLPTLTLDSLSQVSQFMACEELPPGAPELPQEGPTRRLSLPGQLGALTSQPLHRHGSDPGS
Experimental protocol: Inhibition of hERG potassium currents in HEK239 cells (cardiotoxicity)
Attribute measured: IC50 (nM)
Report the value in nM with no unit label.

>>> print(df.to_string())
                                   molecule  attribute_measured  readout_number
0  CCNCCNC(=O)c1c(C)[nH]c(/C=C2\C(=O)Nc3ccc(F)cc32)c1Cl [Compound 14g]                IC50             430

Task: May I ask what IC50 has been recorded for CCN(CC)CCNC(=O)c1c(C)[nH]c(/C=C2\C(=O)Nc3ccc(F)cc32)c1Cl [Compound 14h] ?
Result: 452
